measured_on: LasR (Pseudomonas aeruginosa, UniProt P25084)
Construct: expressed in transfected cells; host or cells: Escherichia coli DH5α (pJN105L+pSC11)
Sequence (P25084 whole entry): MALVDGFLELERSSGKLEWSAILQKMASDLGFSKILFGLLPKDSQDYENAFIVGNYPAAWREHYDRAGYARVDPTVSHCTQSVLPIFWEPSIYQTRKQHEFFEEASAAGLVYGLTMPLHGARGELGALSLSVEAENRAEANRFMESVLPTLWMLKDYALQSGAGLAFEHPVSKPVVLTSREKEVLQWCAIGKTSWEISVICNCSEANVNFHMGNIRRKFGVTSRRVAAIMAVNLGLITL
test_details: LasR agonism assay, P. aeruginosa PA01 MW1 (pUM15) YFP reporter strain
Format: cell-based
assay_setup: thiolactone libraries; P. aeruginosa; synthetic ligands tested at 10 μM
Response field class: enum, chosen by comparing Act % against range 1 = under 3%, range 2 = from 3% up to 20%, range 3 = 20% and over

// below: answered compounds
compound=CCCCCCCCCC(=O)CC(=O)N[C@H]1CCSC1=O qualitative_label="range 3"
compound="CCCC(=O)CC(=O)N[C@H]1CCSC1=O [Compound 30E]" qualitative_label="range 3"
compound="CCCCCCCCCCCC(=O)N[C@H]1CCSC1=O [Compound 25E]" qualitative_label="range 3"
compound="CCCCCCCCCC(=O)CC(=O)NC1CCSC1=O (stereo not drawn)" qualitative_label="range 3"
compound="CCCC(=O)N[C@H]1CCSC1=O [Compound 29E]" qualitative_label="range 3"
compound="O=C(Cc1ccc(Br)cc1)NC1CCSC1=O (racemic)" qualitative_label="range 2"

# input Which class holds COc1ccc(CC(=O)N[C@H]2CCSC2=O)cc1 [Compound 20E] ?
# output range 2

# input Class? Entry: O=C(CCc1c[nH]c2ccccc12)NC1CCSC1=O (racemic)
# output range 2

# input State the class of the compound shown: O=C(Cc1ccc(Br)cc1)N[C@H]1CCSC1=O [Compound 18E]
# output range 2

# input Bin this entry: O=C(Cc1ccccc1)NC1CCSC1=O (racemic)
# output range 1

# input Please classify: O=C(Cc1ccc(-c2ccccc2)cc1)N[C@H]1CCSC1=O [Compound 23E]
# output range 1

# input For this compound, which bin applies? CCCCCCC(=O)N[C@H]1CCSC1=O [Compound 27E]
# output range 1

---

measured_on: LuxR (Aliivibrio fischeri, UniProt P35327)
Sequence (P35327 whole entry): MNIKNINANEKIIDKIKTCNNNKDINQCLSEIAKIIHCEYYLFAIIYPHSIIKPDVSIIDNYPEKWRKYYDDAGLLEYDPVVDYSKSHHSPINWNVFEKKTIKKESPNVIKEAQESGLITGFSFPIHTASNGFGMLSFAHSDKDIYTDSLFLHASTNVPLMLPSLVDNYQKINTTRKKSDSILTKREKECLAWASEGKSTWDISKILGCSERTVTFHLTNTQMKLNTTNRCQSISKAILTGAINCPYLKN
test_details: cell-based
Type: cell-based, Vibrio fischeri
Parameters: The initial library was also tested in Vibrio fischeri ESI 114 (Δ-LuxI); endogenous in cells; host or cells: Vibrio fischeri ESI 114 (Δ-LuxI)
assay_setup: initial library (FIG. 4); V. fischeri ESI 114 (Δ-LuxI)
readout_kind: Antagonist, percent inhibition compared to a positive control (%)
State just the number; it will be interpreted in %.

Below: 3 molecules and their reported Antagonist, percent inhibition compared to a positive control.
molecule="CCCCCCCCCC(=O)CC(=O)NC1CCSC1=O (stereo not shown) [Compound 1]" observed=92
molecule="CCCCCCCCCC(=O)CC(=O)NCc1cccc([N+](=O)[O-])c1 [Compound 13]" observed=43.8
molecule="CCCCCCCCCC(=O)CC(=O)NCc1ccc(OC)cc1 [Compound 14]" observed=14.6

Okay, next one:
# input Give LuxR (Aliivibrio fischeri, UniProt P35327) Antagonist, percent inhibition compared to a positive control for CCCCCCCCCC(=O)CC(=O)NC1CCCC1 [Compound 3]
# output 89.4

---

measured_on: LasR (Pseudomonas aeruginosa)
Construct: expressed in transfected cells; host or cells: Escherichia coli DH5α (pJN105L+pSC11)
test_details: LasR agonism assay, E. coli DH5α (pJN105L+pSC11) β-galactosidase reporter strain
Format: cell-based, P. aeruginosa
assay_setup: dose response; E. coli DH5α (pJN105L+pSC11)
Examples of molecules with documented EC50 follow.
// return numeric value only (unit: nM, not printed)

Past entries and their recorded results:
molecule=CCCCCCCCCC(=O)CC(=O)N[C@H]1CCSC1=O uom=nM observed=92
molecule="CCCCCCCCCCCC(=O)N[C@H]1CCSC1=O [Compound 25E]" uom=nM observed=1900
molecule="CCCC(=O)CC(=O)N[C@H]1CCSC1=O [Compound 30E]" uom=nM observed=130

Here is another molecule to look at.
# input Look up EC50: O=C(Cc1cccc([N+](=O)[O-])c1)N[C@H]1CCSC1=O [Compound 19E]
# output 4100
